Data origin: patent US20080064679A1

- Tested on: mice
- METHOD SUMMARY: Spontaneous activity (S.A.), mouse tetrad
- Format: in vivo
- EXPERIMENTAL PARAMETERS: Mus musculus, iv, vehicle E:E:S (1:1:18), read-out: S.A. ED50 (reducing spontaneous activity)
Quick list: ED50 per entry.
# include the unit after the value

COMPOUND	ED50
CC1=CC[C@@H]2[C@@H](C1)c1c(O)cc(C(C)(C)CCCCC(=O)N3CCCCCC3)cc1OC2(C)C	0.15 µmol/kg
CC1=CC[C@@H]2[C@@H](C1)c1c(O)cc(C(C)(C)CCCCC(=O)NN3CCCCCC3)cc1OC2(C)C	2.07 µmol/kg
CC1=CC[C@@H]2[C@@H](C1)c1c(O)cc(C(C)(C)CCCCn3ccnc3)cc1OC2(C)C	0.01 µmol/kg
CC1=CC[C@@H]2[C@@H](C1)c1c(O)cc(C(C)(C)CCCCC(=O)N3CCN(C)CC3)cc1OC2(C)C [O-2381, Methylepiperazino-carboxamido]	21.4 µmol/kg
CC1=CC[C@@H]2[C@@H](C1)c1c(O)cc(C(C)(C)CCCCn3cccn3)cc1OC2(C)C	0.004 µmol/kg
CC1=CC[C@@H]2[C@@H](C1)c1c(O)cc(C(C)(C)CCCCC(=O)NN3CCOCC3)cc1OC2(C)C	0.17 µmol/kg
CCCCCc1cc(O)c2c(c1)OC(C)(C)C1CCC(C)=CC21 (stereo not drawn) [Δ^9-THC, Δ^9-tetrahydrocannabinol, reference compound]	2.23 µmol/kg
CC1=CC[C@@H]2[C@@H](C1)c1c(O)cc(C(C)(C)CCCCC(=O)N3CCOCC3)cc1OC2(C)C	0.01 µmol/kg

Now, please, on to the next compound.
[ask] ED50 for `CC1=CC[C@@H]2[C@@H](C1)c1c(O)cc(C(C)(C)CCCCC(N)=O)cc1OC2(C)C` ?
[reply] 0.16 µmol/kg
